Hey, just so you know, these numbers are from patent US8946266B2.

Provide the recorded IC50 for the entries that follow.
System: Aβ42
Assay: γ-secretase-modulating activity, Method 2: Aβ42 Alphalisa in supernatant of SKNBE2 cells carrying APP 695-wild type (Table 3b)
Type: cell-based
Details: overnight
Numbers only, in µM.

Guide cases for IC50, answers given:
COc1cc(-c2nc3n(n2)CCOC3c2ccc(F)cc2C)ccc1-n1cnc(C)c1 (stereo not drawn) [Compound 305] ... 0.646
COc1cc(-c2nc(Nc3ccccc3OC(F)(F)F)n(C)n2)ccc1-n1cnc(C)c1.Cl.Cl ... 0.035
COc1cc(-c2nc(Nc3cc(C)ccc3F)n(C)n2)ccc1-n1cnc(C)c1 ... 0.044
COc1cc(Nc2nc(-c3ccc(-n4cnc(C)c4)c(OC)c3)nn2C)ccc1Cl ... 0.028
COCc1ccc(F)c(Nc2nc(-c3ccc(-n4cnc(C)c4)c(OC)c3)nn2C)c1 ... 0.056

# per-item lookup of IC50; items listed below
1. COc1cc(-c2nc(N3CCCC(C(F)(F)F)C3)n(C(C)C)n2)ccc1-n1cnc(C)c1 (racemic)
2. COc1nc(-c2nc3n(n2)CCOC3c2cccc(F)c2C)ccc1-n1cnc(C)c1 (stereo not drawn)
3. COc1cc(-c2nc(N3CC(C)OC(C)C3)n(C)n2)ccc1-n1cnc(C)c1 (stereo not drawn)
4. COc1cc(-c2nc(C(C)C)n(-c3ccc(F)cc3)n2)ccc1-n1cnc(C)c1
5. COc1cc(-c2nc(-c3ccc(F)cc3)n(C(C)C)n2)ccc1-n1cnc(C)c1
6. COc1cc(-c2nc(Nc3cc(F)ccc3F)n(C)n2)ccc1-n1cnc(C)c1
7. COc1cc(-c2nc(Nc3cc(C(F)(F)F)ccc3C)n(C)n2)ccc1-n1cnc(C)c1

[0.676, 0.126, 0.776, 0.447, 0.257, 0.091, 0.008]
